experiment-notes: pKa measurement of the cationic lipid (TNS fluorescence vs pH)
Type: physicochemical
stated-conditions: probe TNS (fluorescent probe), Table 4; pKa of the cationic lipid of formula (I)
Classify by measured pKa: class 1 if it is equal to or exceeds 6, class 0 if it is smaller.

[
  {
    "smiles-input": "CCCCCCCCCC(=O)OCCCC(=O)OCCCOc1cc(CN(C)C)cc(OCCCOC(=O)CCCOC(=O)CCCCCCCCC)c1",
    "classification": "class 0"
  },
  {
    "smiles-input": "CCCCC/C=C\\C/C=C\\CCCCCCCC(=O)OCCCCOc1cc(CN(CC)CC)cc(OCCCCOC(=O)CCCCCCC/C=C\\C/C=C\\CCCCC)c1C",
    "classification": "class 1"
  }
]

###

experiment-notes: Polydispersity index (PDI) of the lipid nanoparticle (dynamic light scattering)
Format: physicochemical
stated-conditions: Table 4; FVII siRNA LNP; Chol/DSPC/stealth lipid S010, 45/44/9/2
A collection of compounds and their measured PDI

[
  {
    "smiles-input": "CCCCC/C=C\\C/C=C\\CCCCCCCC(=O)OCCCCOc1cc(CN2CC(O)C2)cc(OCCCCOC(=O)CCCCCCC/C=C\\C/C=C\\CCCCC)c1",
    "PDI": 0.046
  },
  {
    "smiles-input": "CCCCC/C=C\\C/C=C\\CCCCCCCC(=O)OCCCCOc1cc(CN(C)C)cc(OCCCCOC(=O)CC(CCCCCCCC)CCCCCCCC)c1",
    "PDI": 0.09
  },
  {
    "smiles-input": "CCCCCCCCCC(=O)OCCCCCCOc1cc(CN(C)C)cc(OCCCCCCOC(=O)CCCCCCCCC)c1",
    "PDI": 0.035
  },
  {
    "smiles-input": "CCCCC/C=C\\C/C=C\\CCCCCCCCOc1cc(COC(=O)CCN(C)C)cc(OCCCCCCCC/C=C\\C/C=C\\CCCCC)c1",
    "PDI": 0.059
  }
]

###

A collection of molecules and their measured PDI
experiment-notes: Polydispersity index (PDI) of the lipid nanoparticle (dynamic light scattering)
Assay type: physicochemical
stated-conditions: Table 4; FVII siRNA LNP; Chol/DSPC/stealth lipid PEG-DMG, 45/44/9/2

[
  {
    "smiles-input": "CCCCCCCC/C=C\\CCCCCCCCOc1cc(CN(C)C)cc(OCCCCCCCC/C=C\\CCCCCCCC)c1",
    "PDI": 0.05
  },
  {
    "smiles-input": "CCCCC/C=C\\C/C=C\\CCCCCCCC(=O)OCCCCOc1cc(CN(CC)CC)cc(OCCCCOC(=O)CCCCCCC/C=C\\C/C=C\\CCCCC)c1C",
    "PDI": 0.10
  },
  {
    "smiles-input": "CCCCCCCCCCCC(=O)OCCCCCCCCOc1cc(CN(C)C)cc(OCCCCCCCCOC(=O)CCCCCCCCCCC)c1",
    "PDI": 0.1
  },
  {
    "smiles-input": "CCCCC/C=C\\C/C=C\\CCCCCCCC(=O)OCCCCOc1cc(CN(C)C)cc(OCCCCOC(=O)CCCCCCC/C=C\\C/C=C\\CCCCC)c1",
    "PDI": 0.02
  },
  {
    "smiles-input": "CCCCC/C=C\\C/C=C\\CCCCCCCC(=O)OCCOc1cc(CN(C)C)cc(OCCOC(=O)CCCCCCC/C=C\\C/C=C\\CCCCC)c1",
    "PDI": 0.02
  },
  {
    "smiles-input": "CCCCCCCCCCCCC(=O)OCc1cc(COC(=O)CCCCCCCCCCCC)cc(CN(C)C)c1",
    "PDI": 0.06
  },
  {
    "smiles-input": "CCCCCCCC(=O)OCCCCCCCCCCOc1cc(CN(C)C)cc(OCCCCCCCCCCOC(=O)CCCCCCC)c1",
    "PDI": 0.08
  }
]

###

experiment-notes: pKa measurement of the cationic lipid (TNS fluorescence vs pH)
Assay type: physicochemical
stated-conditions: probe TNS (fluorescent probe), Table 4; pKa of the cationic lipid of formula (I)
quantity: pKa

[
  {
    "compound": "CCCCC/C=C\\C/C=C\\CCCCCCCC(=O)OCCCCOc1cc(CN(C)C)cc(OCCCCOC(=O)CC(CCCCCCCC)CCCCCCCC)c1 [Example 109]",
    "experimental-value": 5.98
  },
  {
    "compound": "CCCCCCCCCC(=O)OCCCCCCOc1cc(CN(C)C)cc(OCCCCCCOC(=O)CCCCCCCCC)c1 [Example 47]",
    "experimental-value": 6.07
  },
  {
    "compound": "CCCCCCCC(=O)OCC(CCOc1cc(CN(C)C)cc(OCCC(COC(=O)CCCCCCC)OC(=O)CCCCCCC)c1)OC(=O)CCCCCCC (centres unmarked) [Example 91]",
    "experimental-value": 6.01
  },
  {
    "compound": "CCCCCCCCC(CCCCCCCC)CC(=O)OCc1cc(COC(=O)CCCCCCCOC(=O)CCCCCCC)cc(CN(C)C)c1 [Example 101]",
    "experimental-value": 6.32
  },
  {
    "compound": "CCCCCCCCCCCC(=O)OCCCCCCOc1cc(CN(C)C)cc(OCCCCCCOC(=O)CCCCCCCCCCC)c1 [Example 59]",
    "experimental-value": 6.09
  },
  {
    "compound": "CCCCC/C=C\\C/C=C\\CCCCCCCC(=O)OCc1cc(COC(=O)CCCCCCC/C=C\\C/C=C\\CCCCC)cc(COC(=O)OCCCN(CC)CC)c1 [Example 69]",
    "experimental-value": 5.3
  },
  {
    "compound": "CCCCCCCCCCCCOC(=O)CCCCCOc1cc(CN(C)C)cc(OCCCCCC(=O)OCCCCCCCCCCCC)c1 [Example 90]",
    "experimental-value": 5.81
  },
  {
    "compound": "CC/C=C\\C/C=C\\C/C=C\\CCCCCCCC(=O)OCCCCOc1cc(CN(C)C)cc(OCCCCOC(=O)CCCCCCC/C=C\\C/C=C\\C/C=C\\CC)c1 [Example 62]",
    "experimental-value": 5.9
  },
  {
    "compound": "CCCCCCCCCCCCC(=O)OCc1cc(COC(=O)CCCCCCCCCCCC)cc(CN(C)C)c1 [Example 34]",
    "experimental-value": 5.95
  },
  {
    "compound": "CCCCC/C=C\\C/C=C\\CCCCCCCC(=O)OCCCCOc1cc(CN2CC(O)C2)cc(OCCCCOC(=O)CCCCCCC/C=C\\C/C=C\\CCCCC)c1 [Example 49]",
    "experimental-value": 5.99
  },
  {
    "compound": "CCCCCCCCCOC(=O)CCCCCCC(=O)OCc1cc(COC(=O)CCCCCCC(=O)OCCCCCCCCC)cc(CN(C)C)c1 [Example 79]",
    "experimental-value": 6.48
  },
  {
    "compound": "CCCCCCCC/C=C\\CCCCCCCC(=O)OCCCCOc1cc(CN(C)C)cc(OCCCCOC(=O)CCCCCCC/C=C\\CCCCCCCC)c1 [Example 60]",
    "experimental-value": 6.21
  },
  {
    "compound": "CCCCCCCC(=O)OC[C@@H](CCOc1cc(CN(C)C)cc(OCC[C@@H](COC(=O)CCCCCCC)OC(=O)CCCCCCC)c1)OC(=O)CCCCCCC [Example 92]",
    "experimental-value": 5.92
  },
  {
    "compound": "CCCCCCCC(=O)OCCCCCCCCOc1cc(CN(C)C)cc(OCCCCCCCCOC(=O)CCCCCCC)c1 [Example 42]",
    "experimental-value": 5.93
  },
  {
    "compound": "CCCCCCCCCC(=O)OCCCCCC(=O)OCc1cc(COC(=O)CCCCCOC(=O)CCCCCCCCC)cc(CN(C)C)c1 [Example 88]",
    "experimental-value": 5.99
  },
  {
    "compound": "CCCCCCCCC(CCCCCCCC)CC(=O)OCCCOc1cc(CN(C)C)cc(OCCCOC(=O)CC(CCCCCCCC)CCCCCCCC)c1 [Example 56]",
    "experimental-value": 5.93
  },
  {
    "compound": "CCCCC/C=C\\C/C=C\\CCCCCCCCOc1cc(CN(C)C)cc(OCCCCOC(=O)CCC(COC(=O)CCCCC)COC(=O)CCCCC)c1C [Example 104]",
    "experimental-value": 6.02
  },
  {
    "compound": "CCCCCCCC/C=C\\CCCCCCCCOc1cc(CN(C)C)cc(OCCCCCCCC/C=C\\CCCCCCCC)c1 [Example 1]",
    "experimental-value": 5.59
  },
  {
    "compound": "CCCCCCCCCCCCCC(=O)OCCCCOc1cc(CN(C)C)cc(OCCCCOC(=O)CCCCCCCCCCCCC)c1 [Example 61]",
    "experimental-value": 5.82
  },
  {
    "compound": "CCCCCCCCCCCC(=O)OCCCCCCCCOc1cc(CN(C)C)cc(OCCCCCCCCOC(=O)CCCCCCCCCCC)c1 [Example 53]",
    "experimental-value": 6.03
  },
  {
    "compound": "CCCCC/C=C\\C/C=C\\CCCCCCCC(=O)OCCCCOc1cc(CN(C)C)cc(OCCCCOC(=O)CCCCCCC/C=C\\C/C=C\\CCCCC)c1 [Example 38]",
    "experimental-value": 5.93
  },
  {
    "compound": "CCCCCC(=O)OCCCCCCCCOc1cc(CN(C)C)cc(OCCCCCCCCOC(=O)CCCCC)c1 [Example 41]",
    "experimental-value": 5.83
  },
  {
    "compound": "CCCCC/C=C\\C/C=C\\CCCCCCCC(=O)OCCCOc1cc(CN(C)C)cc(OCCCOC(=O)CC(CCCCCCCC)CCCCCCCC)c1 [Example 97]",
    "experimental-value": 5.82
  }
]

Cited source: patent US9504747B2
